Hello, the source for this data is patent US8158628B2, in case you need it.

This section presents molecules with their documented inhibition at 10 µM values.
study_system: human B1R (Homo sapiens)
Construct: expressed in transfected cells; host or cells: CHO K1 cells (Chinese hamster ovary), stably transfected
Sequence (P46663 whole entry): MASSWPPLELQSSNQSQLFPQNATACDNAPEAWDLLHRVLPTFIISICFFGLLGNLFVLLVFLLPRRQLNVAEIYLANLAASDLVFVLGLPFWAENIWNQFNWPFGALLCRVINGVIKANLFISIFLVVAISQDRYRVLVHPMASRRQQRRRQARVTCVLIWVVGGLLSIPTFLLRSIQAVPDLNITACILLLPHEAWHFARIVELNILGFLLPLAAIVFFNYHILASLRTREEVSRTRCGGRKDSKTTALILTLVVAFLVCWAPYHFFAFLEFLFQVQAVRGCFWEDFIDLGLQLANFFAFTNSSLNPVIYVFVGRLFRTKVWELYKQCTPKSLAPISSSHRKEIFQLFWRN
method_notes: FLIPR Ca2+ functional assay, B1R antagonism, human B1R in CHO K1 cells
Type: cell-based
condition_context: test substance 10 μM; hB1R CHO K1 cells; agonist Lys-Des-Arg9 bradykinin at EC80; % of maximum achievable inhibition
property: inhibition at 10 µM

In [3]: df
Out[3]:
                                   molecule  experimental_value
0  O=C(CC1c2cccn2CCN1S(=O)(=O)c1cccc(C(F)(F)F)c1)NC1CCc2cc(CN3CCCc4ccccc43)ccc2C1 (stereo not shown)               62.8%
1  Cc1ccc(S(=O)(=O)N2CCn3cccc3C2CC(=O)NC2CCc3cc(CN4CCCC4)ccc3C2)cc1Cl (stereo not shown)               99.9%
2  O=C(CC1c2cccn2CCN1S(=O)(=O)c1cccc(C(F)(F)F)c1)NC1CCCc2cc(CNCc3ccccc3)ccc21 (stereo not shown)               99.8%
3  CNCc1ccc2c(c1)CCC(NC(=O)CC1c3cccn3CCN1S(=O)(=O)c1ccc(C)c(Cl)c1)C2 (stereo not shown)               99.8%
4  COc1cc(C)c(S(=O)(=O)N2CCn3cccc3C2COCC(=O)N2CCC3(CCNC3)CC2)c(C)c1 (stereo not shown)               99.6%
5  Cc1ccc(S(=O)(=O)N2CCn3cccc3C2CC(=O)N[C@@H]2CCCc3cc(CNC(C)(C)C)ccc32)cc1 (stereo partly shown)               99.9%
6  O=C(CC1c2cccn2CCN1S(=O)(=O)c1cccc(C(F)(F)F)c1)NC1CCCc2cc(CN3CCCCC3)ccc21 (stereo not shown)                100%

====

study_system: B1R of the rat (Rattus norvegicus)
Construct: expressed in transfected cells; host or cells: CHO K1 cells (Chinese hamster ovary), stably transfected
Sequence (P97583 whole entry): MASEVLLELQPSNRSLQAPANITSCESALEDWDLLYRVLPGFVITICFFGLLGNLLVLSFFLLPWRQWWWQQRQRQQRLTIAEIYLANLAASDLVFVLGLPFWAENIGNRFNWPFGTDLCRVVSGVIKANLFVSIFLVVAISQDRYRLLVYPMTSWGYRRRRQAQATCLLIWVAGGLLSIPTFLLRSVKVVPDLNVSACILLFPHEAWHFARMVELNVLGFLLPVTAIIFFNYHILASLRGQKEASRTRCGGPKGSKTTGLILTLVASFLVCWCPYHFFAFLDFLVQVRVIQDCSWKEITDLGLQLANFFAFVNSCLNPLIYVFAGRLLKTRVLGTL
method_notes: FLIPR Ca2+ functional assay, B1R antagonism, rat B1R in CHO K1 cells
Format: cell-based
condition_context: test substance 10 μM; rB1R CHO K1 cells; agonist Des-Arg9 bradykinin at EC80; % of maximum achievable inhibition
Below is a list of entries, each paired with its recorded inhibition at 10 µM value.
property: inhibition at 10 µM (%)

>>> print(df.to_string())
                                    compound                        study_system  experimental_value
 0  Cc1ccc(S(=O)(=O)N2CCn3cccc3C2CC(=O)NC2CCCc3cc(CN4CCCCC4)ccc32)cc1 (stereo not drawn) [Example 80]  B1R of the rat (Rattus norvegicus)                 101
 1  O=C(CC1c2cccn2CCN1S(=O)(=O)c1ccccc1)N1CCC[C@H]1CN1CCCC1 (stereo partly drawn) [Example 264]  B1R of the rat (Rattus norvegicus)                1.78
 2  Cc1ccc(S(=O)(=O)N2CCn3cccc3C2CC(=O)NC2CCc3cc(CN(C)C(C)(C)C)ccc3C2)cc1Cl (stereo not drawn) [Example 75]  B1R of the rat (Rattus norvegicus)                 102
 3  O=C(CC1c2cccn2CCN1S(=O)(=O)c1cccc(C(F)(F)F)c1)NC1CCc2cc(CN3CCOCC3)ccc2C1 (stereo not drawn) [Example 67]  B1R of the rat (Rattus norvegicus)                 101
 4  O=C(CC1c2cccn2CCN1S(=O)(=O)c1cccc(C(F)(F)F)c1)NC1CCc2cc(CN3CCCC3)ccc2C1 (stereo not drawn) [Example 84]  B1R of the rat (Rattus norvegicus)                 100
 5  Cc1cccc(Cl)c1S(=O)(=O)N1CCn2cccc2C1CC(=O)N1CCN(Cc2ccc3c(c2)OCO3)CC1 (stereo not drawn) [Example 252]  B1R of the rat (Rattus norvegicus)               -10.5
 6  Cc1ccc(S(=O)(=O)N2CCn3cccc3C2CC(=O)NC2CCCc3cc(CN(C)C(C)(C)C)ccc32)cc1 (stereo not drawn) [Example 74]  B1R of the rat (Rattus norvegicus)                91.2
 7  COc1ccc2cc(S(=O)(=O)N3CCn4cccc4C3CC(=O)NC3CCc4cc(CNC(C)(C)C)ccc4C3)ccc2c1 (stereo not drawn) [Example 31]  B1R of the rat (Rattus norvegicus)                 104
 8  COc1ccc2cc(S(=O)(=O)N3CCn4cccc4C3CC(=O)NC3CCc4cc(CN5CCN(C)CC5)ccc4C3)ccc2c1 (stereo not drawn) [Example 99]  B1R of the rat (Rattus norvegicus)                 101
 9  COc1cc(C)c(S(=O)(=O)N2CCn3cccc3C2COCC(=O)N2CCC3(CCNC3)CC2)c(C)c1 (stereo not drawn) [Example 22]  B1R of the rat (Rattus norvegicus)                 113
10  Cc1cccc(Cl)c1S(=O)(=O)N1CCn2cccc2C1CC(=O)NCCCN1CCOCC1 (stereo not drawn) [Example 154]  B1R of the rat (Rattus norvegicus)                41.9
11  O=C(CC1c2cccn2CCN1S(=O)(=O)c1cccc(C(F)(F)F)c1)NC1CCCc2cc(CN3C4CCCC3CC4)ccc21 (stereo not drawn) [Example 109]  B1R of the rat (Rattus norvegicus)                99.8
12  Cc1ccc(S(=O)(=O)N2CCn3cccc3C2CC(=O)NC2CCCc3cc(CN(C)C)ccc32)cc1 (stereo not drawn) [Example 107]  B1R of the rat (Rattus norvegicus)                98.4
13  Cc1cccc(Cl)c1S(=O)(=O)N1CCn2cccc2C1CC(=O)N1CCN(c2ncccn2)CC1 (stereo not drawn) [Example 162]  B1R of the rat (Rattus norvegicus)                25.2
14  Cc1cccc(Cl)c1S(=O)(=O)N1CCn2cccc2C1COCC(=O)N(C)CCC1CCN(c2ccncc2)CC1 (stereo not drawn) [Example 16]  B1R of the rat (Rattus norvegicus)                98.5

====

Measured inhibition at 10 µM values are reported for all entries that follow.
study_system: human B1R (Homo sapiens)
Construct: expressed in transfected cells; host or cells: CHO K1 cells (Chinese hamster ovary), stably transfected
method_notes: FLIPR Ca2+ functional assay, B1R antagonism, human B1R in CHO K1 cells
Type: cell-based
condition_context: test substance 10 μM; hB1R CHO K1 cells; agonist Lys-Des-Arg9 bradykinin at EC80; % of maximum achievable inhibition
property: inhibition at 10 µM (%)

>>> df
                                    molecule  endpoint_unit  experimental_value
 0  COc1ccc2cc(S(=O)(=O)N3CCn4cccc4C3CC(=O)NC3CCCc4cc(CNCc5ccccc5)ccc43)ccc2c1 (stereo not shown)              %                99.8
 1  Cc1ccc(S(=O)(=O)N2CCn3cccc3C2CC(=O)NC2CCCc3cc(CN(C)C)ccc32)cc1Cl (stereo not shown)              %                99.9
 2  CN(C)Cc1ccc2c(c1)CCC(NC(=O)CC1c3cccn3CCN1S(=O)(=O)c1cccc(C(F)(F)F)c1)C2 (stereo not shown)              %                99.9
 3  O=C(CC1c2cccn2CCN1S(=O)(=O)c1ccccc1)NC1CCc2cc(CN3CCCCC3)ccc2C1 (stereo not shown)              %                 100
 4  CCC(C)NCc1ccc2c(c1)CCCC2NC(=O)CC1c2cccn2CCN1S(=O)(=O)c1cccc(C(F)(F)F)c1 (stereo not shown)              %                99.8
 5  CCC(C)NCc1ccc2c(c1)CCCC2NC(=O)CC1c2cccn2CCN1S(=O)(=O)c1ccc(C)cc1 (stereo not shown)              %                99.9
 6  Cc1ccc(S(=O)(=O)N2CCn3cccc3C2CC(=O)NC2CCCc3cc(CNC(C)(C)C)ccc32)cc1 (stereo not shown)              %                99.9
 7  Cc1cc(S(=O)(=O)N2CCn3cccc3C2CC(=O)NC2CCc3cc(CN4CCCCC4)ccc3C2)c(C)cc1Cl (stereo not shown)              %                  96
 8  COc1ccc2cc(S(=O)(=O)N3CCn4cccc4C3CC(=O)NC3CCCc4cc(CN(C)C)ccc43)ccc2c1 (stereo not shown)              %                 100
 9  Cc1ccc(S(=O)(=O)N2CCn3cccc3C2CC(=O)N[C@H](C)c2ccc(CNC(C)(C)C)cc2)cc1 (stereo partly shown)              %                55.8
10  COc1ccc2cc(S(=O)(=O)N3CCn4cccc4C3CC(=O)NC3CCCc4cc(CNC(C)(C)C)ccc43)ccc2c1 (stereo not shown)              %                 100
11  COc1ccc2cc(S(=O)(=O)N3CCn4cccc4C3CC(=O)NC3CCc4cc(CN5CCCc6ccccc65)ccc4C3)ccc2c1 (stereo not shown)              %                99.8
12  COc1ccc2cc(S(=O)(=O)N3CCn4cccc4C3CC(=O)N(C)C3CCc4cc(CN5CCCCC5)ccc4C3)ccc2c1 (stereo not shown)              %                99.5
13  O=C(CC1c2cccn2CCN1S(=O)(=O)c1cccc(C(F)(F)F)c1)NC1CCc2cc(CN3CCOCC3)ccc2C1 (stereo not shown)              %                99.7
14  COc1cc(C)c(S(=O)(=O)N2CCn3cccc3C2COCC(=O)N2CCC3(CC2)CCN(c2ccncc2)CC3)c(C)c1 (stereo not shown)              %                99.8
15  Cc1ccc(S(=O)(=O)N2CCn3cccc3C2CC(=O)NC2CCCc3cc(CN4CCOCC4)ccc32)cc1 (stereo not shown)              %                  99
16  Cc1ccc(S(=O)(=O)N2CCn3cccc3C2CC(=O)NC2CCc3cc(CNCc4ccccc4)ccc3C2)cc1 (stereo not shown)              %                99.9
17  Cc1ccc(S(=O)(=O)N2CCn3cccc3C2CC(=O)NC2CCCc3cc(CN4CCCCC4)ccc32)cc1Cl (stereo not shown)              %                99.7
18  CNCc1ccc2c(c1)CCC(NC(=O)CC1c3cccn3CCN1S(=O)(=O)c1ccc3cc(OC)ccc3c1)C2 (stereo not shown)              %                99.7
19  Cc1ccc(S(=O)(=O)N2CCn3cccc3C2CC(=O)NC2CCc3cc(CN4CCCCC4)ccc3C2)cc1Cl (stereo not shown)              %                99.7
20  COc1ccc2cc(S(=O)(=O)N3CCn4cccc4C3CC(=O)NC3CCc4cc(CN(C)C)ccc4C3)ccc2c1 (stereo not shown)              %                99.9
21  COc1ccc2cc(S(=O)(=O)N3CCn4cccc4C3CC(=O)NCCc3ccc(C4=NCCN4)cc3)ccc2c1 (stereo not shown)              %                 100
22  CCC(C)NCc1ccc2c(c1)CCCC2NC(=O)CC1c2cccn2CCN1S(=O)(=O)c1ccc2cc(OC)ccc2c1 (stereo not shown)              %                99.6
23  Cc1ccc(S(=O)(=O)N2CCn3cccc3C2CC(=O)NC2CCc3cc(CN4CCCCC4)ccc3C2)cc1 (stereo not shown)              %                99.8
24  COc1cc(C)c(S(=O)(=O)N2CCn3cccc3C2COCC(=O)N2[C@@H]3CC[C@H]2C[C@H](Oc2ccncc2)C3)c(C)c1 (stereo partly shown)              %                 100
25  Cc1ccc(S(=O)(=O)N2CCn3cccc3C2CC(=O)NC2CCCc3cc(CN4CCCc5ccccc54)ccc32)cc1 (stereo not shown)              %                46.1
26  Cc1ccc(S(=O)(=O)N2CCn3cccc3C2CC(=O)NC2CCc3cc(CN4CCN(C)CC4)ccc3C2)cc1Cl (stereo not shown)              %                99.7
27  COc1cc(C)c(S(=O)(=O)N2CCn3cccc3C2COCC(=O)N2CCC3(CC2)CCN(c2ccncc2)C3)c(C)c1 (stereo not shown)              %                99.8
